B1: Azoarcus group I ribozyme (parent)
chain: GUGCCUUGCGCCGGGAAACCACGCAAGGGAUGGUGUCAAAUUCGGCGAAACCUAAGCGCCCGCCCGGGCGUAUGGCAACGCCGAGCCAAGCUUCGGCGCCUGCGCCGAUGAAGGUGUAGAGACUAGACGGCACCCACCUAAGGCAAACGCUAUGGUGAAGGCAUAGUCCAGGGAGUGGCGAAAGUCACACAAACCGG

- Variants of: B1
- experiment notes: reverse-splicing fitness (ratio to wild type); higher = more active; in vitro selection; Mg2+ level not given
parameter measured: reverse-splicing fitness
Just the number, please.

The following variants have reported results that may help.
A111G C150U C169G U176G    0.00579
C82A A120G C150G U176G    0.00336
C82G A120U A145U C150A C169A U176C    0.00199
C82G A111U A120G A145U C150U C169A    0.0117
C82U A120U A145G C150U C169G U176G    0.0018
C82A A120G C150G C169G U176G    0.00432

Query: Reported reverse-splicing fitness for C82U A120U C169A U176C : what is it?
Reply: 0.00216

Query: Form field: reported reverse-splicing fitness of C82G A111U A120G C150A C169U U176G
Reply: 0.00759

Query: // reverse-splicing fitness lookup, key: C82G C150A C169U U176G
Reply: 0.0071
